- System: P. falciparum NF54 strain
- Assay details: In vitro anti-Plasmodium assay (parasite lactate dehydrogenase)
- Assay type: cell-based
- Stated conditions: P. falciparum NF54 drug-sensitive strain, 72 h; read-out: In vitro IC50 PfNF54
pIC50: −log10 of the molar value.
Value type: pIC50

I: Cn1c(=O)ccn([C@@H]2O[C@H](CO)[C@@H](O)[C@H]2O)c1=O
II: Nc1nc2c(ncn2[C@H]2C[C@H](F)[C@@H](CO)O2)c(=O)[nH]1
Input line: Hey, which is lower on measured pIC50, I or II ? When you have decided, please share the label of that item.
Output line: II
(II: 5.31, I: 5.84)
